molecular target: human FPRL2 (Homo sapiens, UniProt P25089); assay: Intracellular calcium measurements (FLIPR), agonistic activity in HEK293-hFPRL2-Gα16 cells; conditions: Fluo-4 calcium FLIPR, normalized to GLY14-Humanin 100 nM
Sequence (P25089 whole entry): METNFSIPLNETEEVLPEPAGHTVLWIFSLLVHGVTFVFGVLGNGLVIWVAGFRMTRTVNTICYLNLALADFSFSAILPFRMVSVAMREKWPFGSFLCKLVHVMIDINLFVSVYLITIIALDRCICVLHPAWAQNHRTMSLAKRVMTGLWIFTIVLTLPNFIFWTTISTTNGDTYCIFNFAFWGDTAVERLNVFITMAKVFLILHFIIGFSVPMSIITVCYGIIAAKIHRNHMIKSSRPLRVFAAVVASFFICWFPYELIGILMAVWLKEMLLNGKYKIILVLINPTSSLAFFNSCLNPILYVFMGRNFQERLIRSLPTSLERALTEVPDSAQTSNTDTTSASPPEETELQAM
readout.name: EC50 (nM)

Please review the entries below; each comes with its answer.
| molecule | target.desc | EC50 (nM) |
| --- | --- | --- |
| CC(C)(CO)NC(=O)[C@H]1[C@H](C(=O)Nc2ncc(Br)s2)[C@@H]2CC[C@H]1C21CC1 | human FPRL2 (Homo sapiens, UniProt P25089) | 15200 |
| O=C(NCCN1CCNC1=O)[C@H]1[C@H](C(=O)NCc2ccc(Br)cc2)[C@@H]2C=C[C@H]1C21CC1 (racemic) | human FPRL2 (Homo sapiens, UniProt P25089) | 7040 |

[A] O=C(NCCCCN1CCCC1)[C@H]1[C@H](C(=O)Nc2ncc(Br)s2)[C@@H]2C=C[C@H]1C21CC1
[B] CC(C)CCN1CCC(NC(=O)[C@H]2[C@H](C(=O)NCCc3ccc(Cl)cc3)[C@@H]3C=C[C@H]2C32CC2)CC1
// pick min by EC50: A , B // output: label of the selected item B

[1] O=C(NC[C@H]1[C@H](C(=O)Nc2ccc(Br)cc2)[C@@H]2C=C[C@H]1C21CC1)c1ccnn1-c1ccccc1 (racemic)
[2] CN1CCN(CCCNC(=O)[C@H]2[C@H](C(=O)Nc3ncc(Br)s3)[C@@H]3C=C[C@H]2C32CC2)CC1 (racemic)
[3] O=C(NCCCCN1CCCC1)C1C(C(=O)NCCc2ccc(F)cc2)C2C=CC1C21CC1 (stereo not shown)
Arrange the 3 entries by EC50 so the values rise. Labels, requested order. 3, 2, 1
(3: 52 nM, 2: 462 nM, 1: 1790 nM)

[A] Cc1cnc(NC(=O)[C@H]2[C@H](C(=O)NCCCCN3CCCC3)[C@H]3C=C[C@@H]2C32CC2)s1 (racemic)
[B] CC(=O)c1ccc(CNC(=O)C2C(C(=O)NCCCCN3CCCC3)C3CCC2C32CC2)o1 (stereo not shown)
[C] CC(C)(C)OC(=O)N1CCCC(CCNC(=O)C2C(C(=O)Nc3ccc(Br)cc3)C3C=CC2C32CC2)C1 (mixture of isomers)
[D] O=C(NCCCCN1CCCC1)[C@H]1[C@H](C(=O)NCc2ccc(Br)cc2F)[C@@H]2C=C[C@H]1C21CC1 (racemic)
Arrange the 4 entries by EC50 so the values rise. Labels, requested order. D, A, B, C

###

biological target: human FPRL2 (Homo sapiens, UniProt P25089); test: Intracellular calcium measurements (FLIPR), agonistic activity in HEK293-hFPRL2-Gα16 cells; conditions: Fluo-4 calcium FLIPR, normalized to GLY14-Humanin 100 nM
pEC50: −log10 of the molar value.
readout.name: pEC50

| compound | pEC50 |
| --- | --- |
| NCCCCCNC(=O)[C@H]1[C@H](C(=O)Nc2ncc(Br)s2)[C@@H]2CC[C@H]1C21CC1 | 6.64 |

[A] CCn1nc(CCNC(=O)[C@H]2[C@H](C(=O)Nc3ccc(Br)cc3)[C@@H]3C=C[C@H]2C32CC2)cc1C (racemic)
[B] O=C(NCCCCN1CCCC1)[C@H]1[C@H](C(=O)NCCn2ccc3ccccc32)[C@@H]2C=C[C@H]1C21CC1 (racemic)
// pick min by pEC50: A , B // output: label of the selected item A

###

target: human FPRL2 (Homo sapiens, UniProt P25089); assay: Intracellular calcium measurements (FLIPR), agonistic activity in HEK293-hFPRL2-Gα16 cells; details: Fluo-4 calcium FLIPR, normalized to GLY14-Humanin 100 nM
pEC50: −log10 of the molar value.
readout.name: pEC50

Please review the entries below; each comes with its answer.
| compound | readout.name | val |
| --- | --- | --- |
| O=C(NCCN1CCNC1=O)[C@H]1[C@H](C(=O)Nc2ccc(Br)cc2)[C@@H]2C=C[C@H]1C21CC1 (racemic) | pEC50 | 5.25 |
| N#CCNC(=O)[C@H]1[C@H](C(=O)Nc2ccc(Br)cc2)[C@@H]2C=C[C@H]1C21CC1 (racemic) | pEC50 | 4.94 |

[1] O=C(NCCCCN1CCCC1)[C@H]1[C@H](C(=O)NCc2nc(Br)cs2)[C@@H]2C=C[C@H]1C21CC1 (racemic)
[2] COCC1CCCN1CCCCNC(=O)[C@H]1[C@H](C(=O)Nc2ccc(Br)cc2)[C@@H]2C=C[C@H]1C21CC1 (stereo partly drawn)
[3] O=C(NCCCC(=O)N1CCCC1)[C@H]1[C@H](C(=O)Nc2ccc(Br)cc2)[C@@H]2C=C[C@H]1C21CC1
Arrange the 3 entries by pEC50 so the values rise. Labels, requested order. 2, 3, 1
(2: 5.12, 3: 6.47, 1: 6.75)

###

Molecular target: human ALX receptor (Homo sapiens)
Sequence (P25090 1-351): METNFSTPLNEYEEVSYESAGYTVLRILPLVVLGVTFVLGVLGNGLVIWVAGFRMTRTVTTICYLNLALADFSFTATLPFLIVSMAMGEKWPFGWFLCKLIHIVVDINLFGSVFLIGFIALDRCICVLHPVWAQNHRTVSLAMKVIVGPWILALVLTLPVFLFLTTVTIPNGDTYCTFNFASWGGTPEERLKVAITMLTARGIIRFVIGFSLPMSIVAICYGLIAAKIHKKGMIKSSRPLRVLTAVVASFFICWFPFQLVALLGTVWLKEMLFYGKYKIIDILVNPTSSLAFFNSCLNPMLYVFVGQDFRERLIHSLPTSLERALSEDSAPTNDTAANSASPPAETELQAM
Assay: Intracellular calcium measurements (FLIPR), agonistic activity in HEK293-hALXR-Gα16 cells
Conditions: Fluo-4 calcium FLIPR, normalized to WKYMVm 10 nM
pEC50: −log10 of the molar value.
readout.name: pEC50

| compound | pEC50 |
| --- | --- |
| O=C(NCCOCCN1CCCC1)[C@H]1[C@H](C(=O)Nc2ccc(Br)cc2)[C@@H]2C=C[C@H]1C21CC1 | 9.14 |
| CC(=O)c1csc(CNC(=O)[C@H]2[C@H](C(=O)NCCN3CCNC3=O)[C@H]3C=C[C@@H]2C32CC2)n1 (racemic) | 7.09 |

[a] NCCNC(=O)[C@H]1[C@H](C(=O)Nc2ccc(Br)cc2)[C@@H]2C=C[C@H]1C21CC1 (racemic)
[b] O=C(NCC1CCNCC1)C1C(C(=O)Nc2ncc(Br)s2)C2C=CC1C21CC1 (stereo not shown)
[c] O=C(NCCCCN1CCCC1)[C@H]1[C@H](C(=O)Nc2cnc(Br)c(F)c2)[C@@H]2C=C[C@H]1C21CC1
[d] NC(=O)CCNC(=O)[C@H]1[C@H](C(=O)NCc2ccc(Br)cc2F)[C@@H]2CC[C@H]1C21CC1
Arrange the 4 entries by pEC50 so the values rise. Labels, requested order. c, d, a, b

[I] O=C(NCC1CCNCC1)[C@H]1[C@H](C(=O)Nc2ccc(Br)cc2)[C@@H]2C=C[C@H]1C21CC1 (racemic)
[II] O=C(NCCCCN1CCCC1)[C@H]1[C@H](C(=O)NCc2ccc(Br)cc2)[C@@H]2C=C[C@H]1C21CC1
[III] COc1ccc(CCNC(=O)[C@H]2[C@H](C(=O)NCCCCN3CCCC3)[C@H]3C=C[C@@H]2C32CC2)cc1Br (racemic)
Arrange the 3 entries by pEC50 so the values rise. Labels, requested order. III, II, I

###

Target: human ALX receptor (Homo sapiens)
Sequence (P25090 1-351): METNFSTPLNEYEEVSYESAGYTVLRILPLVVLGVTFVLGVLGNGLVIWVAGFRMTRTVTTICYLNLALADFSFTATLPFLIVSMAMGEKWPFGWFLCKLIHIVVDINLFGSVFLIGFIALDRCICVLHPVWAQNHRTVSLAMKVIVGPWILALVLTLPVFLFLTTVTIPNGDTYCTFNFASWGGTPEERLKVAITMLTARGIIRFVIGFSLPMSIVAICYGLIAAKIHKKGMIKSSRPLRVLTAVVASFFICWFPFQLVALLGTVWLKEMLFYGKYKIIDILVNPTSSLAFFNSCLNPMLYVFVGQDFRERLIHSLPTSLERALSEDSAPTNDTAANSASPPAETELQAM
Assay: Intracellular calcium measurements (FLIPR), agonistic activity in HEK293-hALXR-Gα16 cells
Conditions: Fluo-4 calcium FLIPR, normalized to WKYMVm 10 nM
pEC50: −log10 of the molar value.
readout.name: pEC50

| compound | readout.name | val |
| --- | --- | --- |
| CN1CCCN(CCCCNC(=O)[C@H]2[C@H](C(=O)Nc3ccc(Br)cc3)[C@@H]3C=C[C@H]2C32CC2)CC1 [Example 212] | pEC50 | 9.05 |

[a] O=C(NCCCCN1CCCC1)[C@H]1[C@H](C(=O)Nc2ccc(Br)cc2F)[C@@H]2C=C[C@H]1C21CC1 [Example 295]
[b] CCn1nc(C)cc1CCNC(=O)[C@H]1[C@H](C(=O)Nc2ccc(Br)cc2)[C@@H]2C=C[C@H]1C21CC1 (racemic) [Example 76]
[c] O=C(NC1CCCNC1)[C@H]1[C@H](C(=O)Nc2ncc(Br)s2)[C@@H]2CC[C@H]1C21CC1 (stereo partly shown) [Example 415]
List from greatest to least pEC50. Labels, requested order. a, c, b
(a: 8.89, c: 8.04, b: 7.11)
